system: 935938-334-R-J1-PDC spheroids with HUVEC/MSC, viability; experiment: Anticancer human tumor 935938-334-R-J1-PDC patient-derived small intestine adenocarcinoma cell line growth inhibition [PI3K]; conditions: second compound 0.316 µM; first compound 3 µM; stronger effect = lower value
Measured viability, T/C of individual entries
# unit: % | format: bare number

Query: Please give the measured viability, T/C for this molecule: Cn1cnc2c(F)c(Nc3ccc(Br)cc3Cl)c(C(=O)NOCCO)cc21 + COc1c(OCCCN2CCOCC2)ccc2c3n(c(=NC(=O)c4cnc(N)nc4)nc12)CCN3
Result: 15

Query: Cn1cnc2c(F)c(Nc3ccc(Br)cc3Cl)c(C(=O)NOCCO)cc21 + Cc1nc(NC(=O)N2CCCC2C(N)=O)sc1-c1ccnc(C(C)(C)C(F)(F)F)c1 , same question.
Result: 17.3

Query: Cn1cnc2c(F)c(Nc3ccc(Br)cc3Cl)c(C(=O)NOCCO)cc21 + CC(Nc1ccc2c(c1)OCCn1cc(N3C(=O)OCC3C(F)F)nc1-2)C(N)=O , same question.
Result: 12.7

Query: Cn1cnc2c(F)c(Nc3ccc(Br)cc3Cl)c(C(=O)NOCCO)cc21 + CC(Nc1ncnc2nc[nH]c12)c1cc2cccc(Cl)c2c(=O)n1-c1ccccc1 , same question.
Result: 20

----------
system: 935938-334-R-J1-PDC spheroids with HUVEC/MSC, viability; test: Anticancer human tumor 935938-334-R-J1-PDC cell line growth inhibition [PI3K]; conditions: second compound 1 µM; first compound 0.01 µM; stronger effect = lower value;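 note: compound exposure lasted seven days before viability was read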;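 for viability, T/C: percent of vehicle DMSO treated spheroid viability so 100% = untreated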
We label by threshold. Values of viability, T/C strictly beneath 80% are criterion met. Values of 80% and up are criterion not met.

# count of solved cases: 2
[[record]]
compound = "CC(C)n1nc(-c2ccc3oc(N)nc3c2)c2c(N)ncnc21 + Cc1nc(NC(=O)N2CCCC2C(N)=O)sc1-c1ccnc(C(C)(C)C(F)(F)F)c1"
label_value = "criterion met"

[[record]]
compound = "CC(C)n1nc(-c2ccc3oc(N)nc3c2)c2c(N)ncnc21 + COc1c(OCCCN2CCOCC2)ccc2c3n(c(=NC(=O)c4cnc(N)nc4)nc12)CCN3"
label_value = "criterion met"


Query: Strictly below 80%: is that where viability, T/C of CCN1CCN(Cc2ccc(Nc3ncc(F)c(-c4cc(F)c5nc(C)n(C(C)C)c5c4)n3)nc2)CC1 + CC(Nc1ncnc2nc[nH]c12)c1cc2cccc(Cl)c2c(=O)n1-c1ccccc1 sits?
Result: criterion not met

Query: Cn1ncnc1[C@H]1c2n[nH]c(=O)c3cc(F)cc(c23)N[C@@H]1c1ccc(F)cc1 + CC(Nc1ccc2c(c1)OCCn1cc(N3C(=O)OCC3C(F)F)nc1-2)C(N)=O , same question.
Result: criterion met

Query: CC(=O)c1c(C)c2cnc(Nc3ccc(N4CCNCC4)cn3)nc2n(C2CCCC2)c1=O + Cc1nc(NC(=O)N2CCCC2C(N)=O)sc1-c1ccnc(C(C)(C)C(F)(F)F)c1 , same question.
Result: criterion met

Query: CC(=O)c1c(C)c2cnc(Nc3ccc(N4CCNCC4)cn3)nc2n(C2CCCC2)c1=O + CC(Nc1ncnc2nc[nH]c12)c1cc2cccc(Cl)c2c(=O)n1-c1ccccc1 , same question.
Result: criterion not met

----------
Measured log10 IC50 of individual entries
system: 935938-334-R-J1-PDC spheroids with HUVEC/MSC, viability; assay: Anticancer human tumor 935938-334-R-J1-PDC cell line growth inhibition [PI3K]; settings: curve of first compound; second compound 1 µM;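 note: compound exposure lasted seven days before viability was read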
Heads up, the numbers here are log10 of IC50 in nM units.

[[record]]
compound = "CC(C)NCC(C(=O)N1CCN(c2ncnc3c2C(C)CC3O)CC1)c1ccc(Cl)cc1 (stereo unspecified) + Cc1nc(NC(=O)N2CCCC2C(N)=O)sc1-c1ccnc(C(C)(C)C(F)(F)F)c1"
measurement = 3.11

[[record]]
compound = "Cn1ncc(Cl)c1-c1cc(C(=O)NC(CN)Cc2cccc(F)c2)sc1Cl (stereo unspecified) + CC(Nc1ncnc2nc[nH]c12)c1cc2cccc(Cl)c2c(=O)n1-c1ccccc1"
measurement = 3.43

[[record]]
compound = "CC1(C)CCC(CN2CCN(c3ccc(C(=O)NS(=O)(=O)c4ccc(NCC5CCOCC5)c([N+](=O)[O-])c4)c(Oc4cnc5[nH]ccc5c4)c3)CC2)=C(c2ccc(Cl)cc2)C1 + Cc1nc(NC(=O)N2CCCC2C(N)=O)sc1-c1ccnc(C(C)(C)C(F)(F)F)c1"
measurement = 3.73

[[record]]
compound = "CCCS(=O)(=O)Nc1ccc(F)c(C(=O)c2c[nH]c3ncc(-c4ccc(Cl)cc4)cc23)c1F + CC(Nc1ccc2c(c1)OCCn1cc(N3C(=O)OCC3C(F)F)nc1-2)C(N)=O"
measurement = 3.73


Turning to the following compound.
Query: Please give the measured log10 IC50 for this compound: CC(=O)c1c(C)c2cnc(Nc3ccc(N4CCNCC4)cn3)nc2n(C2CCCC2)c1=O + CC(Nc1ccc2c(c1)OCCn1cc(N3C(=O)OCC3C(F)F)nc1-2)C(N)=O
Result: 1.42

----------
tested on: 935938-334-R-J1-PDC spheroids with HUVEC/MSC, viability; assay: Anticancer human tumor 935938-334-R-J1-PDC cell line growth inhibition [PI3K]; settings: second compound 3.16 µM; first compound 0.0316 µM; stronger effect = lower value;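 note: compound exposure lasted seven days before viability was read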;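 for viability, T/C: percent of vehicle DMSO treated spheroid viability so 100% = untreated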
property: viability, T/C (%)
# unit: % | format: bare number

[[record]]
compound = "CC1(C)CCC(CN2CCN(c3ccc(C(=O)NS(=O)(=O)c4ccc(NCC5CCOCC5)c([N+](=O)[O-])c4)c(Oc4cnc5[nH]ccc5c4)c3)CC2)=C(c2ccc(Cl)cc2)C1 + CC(Nc1ncnc2nc[nH]c12)c1cc2cccc(Cl)c2c(=O)n1-c1ccccc1"
measurement = 92.6

[[record]]
compound = "CC(C)NCC(C(=O)N1CCN(c2ncnc3c2C(C)CC3O)CC1)c1ccc(Cl)cc1 (stereo not given) + CC(Nc1ncnc2nc[nH]c12)c1cc2cccc(Cl)c2c(=O)n1-c1ccccc1"
measurement = 64.6

[[record]]
compound = "Cn1nccc1Nc1nccc(-c2ccn(C(CO)c3ccc(Cl)c(F)c3)c(=O)c2)n1 (stereo not given) + CC(Nc1ncnc2nc[nH]c12)c1cc2cccc(Cl)c2c(=O)n1-c1ccccc1"
measurement = 74.1

[[record]]
compound = "C=CC(=O)N1CCN(c2nc(=O)n(-c3c(C)ccnc3C(C)C)c3nc(-c4c(O)cccc4F)c(F)cc23)C(C)C1 (stereo not given) + Cc1nc(NC(=O)N2CCCC2C(N)=O)sc1-c1ccnc(C(C)(C)C(F)(F)F)c1"
measurement = 48.4


Turning to the following compound.
Query: Find the measured viability, T/C: item Cn1ncc(Cl)c1-c1cc(C(=O)NC(CN)Cc2cccc(F)c2)sc1Cl (stereo not given) + CC(Nc1ncnc2nc[nH]c12)c1cc2cccc(Cl)c2c(=O)n1-c1ccccc1 , target or system 935938-334-R-J1-PDC spheroids with HUVEC/MSC, viability.
Result: 72.2

----------
test system: 935938-334-R-J1-PDC spheroids with HUVEC/MSC, viability; test: Anticancer human tumor 935938-334-R-J1-PDC cell line growth inhibition [PI3K]; conditions: curve of first compound; second compound 0.1 µM;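 note: compound exposure lasted seven days before viability was read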
property: IC50

Consider the worked cases shown below.
[[record]]
compound = "Cn1cnc2c(F)c(Nc3ccc(Br)cc3Cl)c(C(=O)NOCCO)cc21 + CC(Nc1ccc2c(c1)OCCn1cc(N3C(=O)OCC3C(F)F)nc1-2)C(N)=O"
property = "IC50"
measurement = "27.4 nM"

[[record]]
compound = "CC(Cn1ccc(-c2ccc(C#N)c(Cl)c2)n1)NC(=O)c1cc(C(C)O)[nH]n1 (stereo not drawn) + Cc1nc(NC(=O)N2CCCC2C(N)=O)sc1-c1ccnc(C(C)(C)C(F)(F)F)c1"
property = "IC50"
measurement = "> 10000 nM"


Query: Please give the measured IC50 for this compound: CC(=O)c1c(C)c2cnc(Nc3ccc(N4CCNCC4)cn3)nc2n(C2CCCC2)c1=O + CC(Nc1ncnc2nc[nH]c12)c1cc2cccc(Cl)c2c(=O)n1-c1ccccc1
Result: > 100 nM

----------
test system: 935938-334-R-J1-PDC spheroids with HUVEC/MSC, viability; test: Anticancer human tumor 935938-334-R-J1-PDC cell line growth inhibition [PI3K]; details: curve of first compound; second compound 0.1 µM;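 note: compound exposure lasted seven days before viability was read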
Measured pIC50 of individual entries
Please keep in mind that pIC50 is minus log10 of the molar concentration; only the number is needed.

Query: Find the measured pIC50: item C#Cc1c(F)ccc2cc(O)cc(-c3ncc4c(N5CC6CCC(C5)N6)nc(OCC56CCCN5CC(F)C6)nc4c3F)c12 (configuration not stated) + CC(Nc1ncnc2nc[nH]c12)c1cc2cccc(Cl)c2c(=O)n1-c1ccccc1 , target or system 935938-334-R-J1-PDC spheroids with HUVEC/MSC, viability.
Result: 5.50

Query: CC1(C)CCC(CN2CCN(c3ccc(C(=O)NS(=O)(=O)c4ccc(NCC5CCOCC5)c([N+](=O)[O-])c4)c(Oc4cnc5[nH]ccc5c4)c3)CC2)=C(c2ccc(Cl)cc2)C1 + CC(Nc1ncnc2nc[nH]c12)c1cc2cccc(Cl)c2c(=O)n1-c1ccccc1 , same question.
Result: 5.18

Query: CCN1CCN(Cc2ccc(Nc3ncc(F)c(-c4cc(F)c5nc(C)n(C(C)C)c5c4)n3)nc2)CC1 + CC(Nc1ncnc2nc[nH]c12)c1cc2cccc(Cl)c2c(=O)n1-c1ccccc1 , same question.
Result: 6.61
